# Test system: benzodiazepine receptor of rat brains
# assayProcedure: Radioligand receptor binding assay ([3H]-flumazenil competitive binding)
# assaySetup: log[L] -7.0; mean ± SEM, n=3
endpointLabel: Specific binding of [3H]flumazenil

Requested read-out Specific binding of [3H]flumazenil, target or system benzodiazepine receptor of rat brains, entry O=C(Nc1ccccc1)c1nnc(-c2ccc(Cl)cc2Oc2ccccc2)o1 [6a]
0.3167±0.0378 cpm

Param readout= Specific binding of [3H]flumazenil; system= benzodiazepine receptor of rat brains; entry= O=C(NN1CCOCC1)c1nnc(-c2ccc(Cl)cc2Oc2ccccc2)o1 [6e] ; returns value.
0.2900±0.0059 cpm

Please state recorded Specific binding of [3H]flumazenil (tested on benzodiazepine receptor of rat brains) of Cc1cccc(NC(=O)c2nnc(-c3ccc(Cl)cc3Oc3ccccc3)o2)n1 [6c]
0.3000±0.0059 cpm

For benzodiazepine receptor of rat brains, provide Specific binding of [3H]flumazenil of O=C(NC1CCCCC1)c1nnc(-c2ccc(Cl)cc2Oc2ccccc2)o1 [6f] please.
0.2133±0.0272 cpm

Query Specific binding of [3H]flumazenil on benzodiazepine receptor of rat brains for Cc1ccnc(NC(=O)c2nnc(-c3ccc(Cl)cc3Oc3ccccc3)o2)c1 [6d]
0.3000±0.0059 cpm

API: value(readout=Specific binding of [3H]flumazenil, system=benzodiazepine receptor of rat brains) for record O=C(Nc1ccccn1)c1nnc(-c2ccc(Cl)cc2Oc2ccccc2)o1 [6b]
0.2333±0.0148 cpm

Values compiled from paper PMC10043390.
